Target: Edg-2 receptor (Homo sapiens)
Construct: expressed in transfected cells
Sequence (Q92633 whole entry): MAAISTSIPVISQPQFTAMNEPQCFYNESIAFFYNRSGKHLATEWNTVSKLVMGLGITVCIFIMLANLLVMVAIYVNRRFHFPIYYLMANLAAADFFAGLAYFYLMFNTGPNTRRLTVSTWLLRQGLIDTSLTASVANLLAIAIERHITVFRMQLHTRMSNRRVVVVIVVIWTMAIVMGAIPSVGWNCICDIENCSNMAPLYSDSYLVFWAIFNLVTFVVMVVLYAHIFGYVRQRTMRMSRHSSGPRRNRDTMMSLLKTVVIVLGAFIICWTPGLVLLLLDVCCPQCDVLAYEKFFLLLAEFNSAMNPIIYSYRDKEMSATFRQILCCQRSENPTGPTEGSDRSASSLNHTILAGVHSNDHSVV
Experiment: Intracellular calcium measurement (FLIPR), LPA-stimulated calcium increases in rat hepatoma (HTC) cells stably expressing Edg-2
Format: cell-based
Conditions: calcium mobilization, HTC cells expressing Edg 2
Text: LPA receptors such as Edg-2, couple to calcium effector pathways, and result in increases in intracellular calcium following receptor activation (An, 1998, J. Cell. Biochem. Supp., 30-31: 147-157). This biological response lends itself to a very efficient, high-throughput screen using a Fluorescence Imaging Plate Reader (FLIPR; Molecular Devices, Sunnyvale, Calif.). The FLIPR system is a real-time, cell-based assay system with continuous fluorescence detection using a cooled CCD camera. […]
Overview of recorded pIC50 for various compounds
Keep in mind that pIC50 stands for -log10 of concentration in molar terms.

CCOc1ccccc1N1C(=O)CC(N(O)c2ccccc2)C1=O (centres unmarked)	5.85

The measured pIC50 associated with `CCn1nc(C)c(-c2ccccc2O)c1-c1ccccc1` reads 6.19

Data origin, for the record: patent US20050101518A1
